Target: Sigma non-opioid intracellular receptor 1 (Homo sapiens, UniProt Q99720)
Sequence (Q99720 whole entry): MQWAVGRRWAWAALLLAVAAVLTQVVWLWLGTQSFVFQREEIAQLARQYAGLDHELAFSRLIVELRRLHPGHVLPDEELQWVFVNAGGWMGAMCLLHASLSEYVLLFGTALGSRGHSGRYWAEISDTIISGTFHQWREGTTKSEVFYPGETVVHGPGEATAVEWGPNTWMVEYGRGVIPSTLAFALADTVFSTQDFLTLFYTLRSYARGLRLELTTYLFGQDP
Assay: Displacement of [3H](+)-pentazocine from human sigma 1 receptor transfected in human HEK293T cells assessed as inhibition constant by radioligand competition binding assay
Type: cell-based
Settings: read-out: Ki
Parameter measured: Ki (nM)

# Molecule, Parameter measured, Observed
rows = [
    ("O=C(OCc1ccccc1)N1CCCCC1c1cccc(N2CCN(CCCO)CC2)c1 (centres undefined)", "Ki", 18),
    ("CCCN1CCN(c2cccc(C3CCCCN3S(=O)(=O)c3cc(Cl)cc(Cl)c3)c2)CC1 (centres undefined)", "Ki", 4.5),
    ("CCCN1CCN(c2cccc(C3CCCCN3C(=O)/C=C/c3ccccc3)c2)CC1 (centres undefined)", "Ki", 4.8),
    ("CCCN1CCN(c2cccc(C3CCCCN3C(=O)OCc3cc(Cl)cc(Cl)c3)c2)CC1 (centres undefined)", "Ki", 5.4),
]

---

Biological target: Sigma intracellular receptor 2 (Rattus norvegicus)
Sequence (Q5U3Y7 whole entry): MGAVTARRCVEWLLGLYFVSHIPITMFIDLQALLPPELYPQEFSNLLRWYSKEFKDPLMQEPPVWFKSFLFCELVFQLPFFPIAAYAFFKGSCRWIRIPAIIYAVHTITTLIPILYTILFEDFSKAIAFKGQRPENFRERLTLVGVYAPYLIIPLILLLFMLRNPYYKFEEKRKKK
Assay: biochemical
Description: Binding affinity to rat sigma 2 receptor/TMEM97 expressed in rat PC-12 cells assessed as inhibition constant
pKi: −log10 of the molar value.

# Molecule, pKi
rows = [
    ("Clc1ccc2c(c1)C1CC2CCCN1CCc1ccccc1 (stereo unspecified)", 7.64),
]
